src = patent US8822517B2

Assignment: determine reported activation at 1 µM for the given compounds.
target: serotoninergic 5-HT6 receptor (Homo sapiens, UniProt P50406); assay: Cellular functional assay, serotoninergic 5-HT6 receptor (agonism/antagonism); format: cell-based; details: agonist effect, percent of control specific agonist response; compounds tested at 1×10^−6M; read-out: 5-HT6-ag [%]
Sequence (P50406 whole entry): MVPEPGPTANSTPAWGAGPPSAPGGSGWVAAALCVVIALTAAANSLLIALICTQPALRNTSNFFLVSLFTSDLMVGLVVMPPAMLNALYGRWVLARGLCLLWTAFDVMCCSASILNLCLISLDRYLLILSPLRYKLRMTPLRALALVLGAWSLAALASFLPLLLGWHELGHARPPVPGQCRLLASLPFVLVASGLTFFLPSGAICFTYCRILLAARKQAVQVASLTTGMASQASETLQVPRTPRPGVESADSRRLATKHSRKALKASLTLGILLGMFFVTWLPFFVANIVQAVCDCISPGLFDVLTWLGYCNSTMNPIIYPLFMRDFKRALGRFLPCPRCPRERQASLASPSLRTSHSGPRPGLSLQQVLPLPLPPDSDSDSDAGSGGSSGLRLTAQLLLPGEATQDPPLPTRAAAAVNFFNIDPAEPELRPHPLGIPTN
Put your answer as a value accompanied by its unit after it.

O=S(=O)(NCCCCN1CCN(c2noc3ccccc23)CC1)c1ccc2ccccc2c1 : 1%
O=S(=O)(NCCCCN1CCN(c2noc3ccccc23)CC1)c1ccc(-c2ccccc2)cc1 : 0%
O=S(=O)(NCCCCN1CCN(c2nsc3ccccc23)CC1)c1cc2ccccc2s1 : 0%
O=S(=O)(NCCCCN1CCN(c2noc3ccccc23)CC1)c1cccc2ccccc12 : 1%
Cc1cccc(S(=O)(=O)NCCCN2CCC(c3noc4cc(F)ccc34)CC2)c1 : 1%

Batch: activation at 1 µM for all items listed.
1. O=S(=O)(NCCCCN1CCN(c2noc3ccccc23)CC1)c1cc2ccc(Cl)cc2s1
2. O=S(=O)(NCCCCN1CCN(c2noc3ccccc23)CC1)c1ccc2cc(Cl)ccc2c1
3. O=c1[nH]c2ccc(S(=O)(=O)NCCCCN3CCN(c4noc5ccccc45)CC3)cc2o1

## Result
1. 0%
2. 1%
3. 0%
